# Experimental Details: Selectivity ratio of IC50 for cyclinE/CDK2 to IC50 for CHK1
Recorded Endpoint: Ratio IC50

| Smiles Str | Ratio IC50 |
| --- | --- |
| COc1ccc(-c2nc(C(=O)Nc3ccccc3N3CCNCC3)cs2)cc1 | 5 |
| O=C(Nc1ccccc1N1CCNCC1)c1csc(-c2ccccc2)n1 | 12 |

1 = C[C@H]1CN(c2ccccc2NC(=O)c2csc(-c3ccc4c(c3)CCO4)n2)CCN1
2 = O=C(Nc1ccccc1N1CCNCC1)c1csc(-c2cccs2)n1
3 = CN(C)c1ccc(-c2nc(C(=O)Nc3ccccc3N3CCNCC3)cs2)cc1
QUERY: With regard to Ratio IC50, arrange the entries in ascending order, please. Respond with the label ranking, as requested.
RESULT: 1, 2, 3
(1: 3, 2: 16, 3: 73)
